Origin of measurements: the supplement of paper PMC11246515

total protein half-life in vivo: recorded values
Experiment: total protein half-life in vivo (active degradation + dilution); higher = more stable protein
Conditions: wild type E. coli NCM3722; growth: N-lim chemostat; doubling time 6 h
quantity.name: total protein half-life in vivo (h)

macromolecule.sequence	readout.unit	assay.result
MSNQFGDTRIDDDLTLLSETLEEVLRSSGDPADQKYVELKARAEKALDDVKKRVSQASDSYYYRAKQAVYRADDYVHEKPWQGIGVGAAVGLVLGLLLARR [P0AEH5]	h	5.99
MAGESFILMGVSGSGKTLIGSKVAALLSAKFIDGDDLHPAKNIDKMSQGIPLSDEDRLPWLERLNDASYSLYKKNETGFIVCSSLKKQYRDILRKGSPHVHFLWLDGDYETILARMQRRAGHFMPVALLKSQFEALERPQADEQDIVRIDINHDIANVTEQCRQAVLAIRQNRICAKEGSASDQRCE	h	1.6
MSEKYIVTWDMLQIHARKLASRLMPSEQWKGIIAVSRGGLVPGALLARELGIRHVDTVCISSYDHDNQRELKVLKRAEGDGEGFIVIDDLVDTGGTAVAIREMYPKAHFVTIFAKPAGRPLVDDYVVDIPQDTWIEQPWDMGVVFVPPISGR [P0A9M5]	h	4.16
MSDDNSHSSDTISNKKGFFSLLLSQLFHGEPKNRDELLALIRDSGQNDLIDEDTRDMLEGVMDIADQRVRDIMIPRSQMITLKRNQTLDECLDVIIESAHSRFPVISEDKDHIEGILMAKDLLPFMRSDAEAFSMDKVLRQAVVVPESKRVDRMLKEFRSQRYHMAIVIDEFGGVSGLVTIEDILELIVGEIEDEYDEEDDIDFRQLSRHTWTVRALASIEDFNEAFGTHFSDEEVDTIGGLVMQAFGHLPARGETIDIDGYQFKVAMADSRRIIQVHVKIPDDSPQPKLDE [P0AE78]	h	4.6
MTRLASRFGAANLIRRDRPLTREELFRVVPSVFSEDKHESRSERYTYIPTISLLDSLQREGFQPFFACQTRVRDPGRREHTKHMLRLRREGQITGKQVPEIILLNSHDGTSSYQMLPGLFRAVCQNGLVCGESFGEVRVPHKGDVVSQVIEGAYEVLGIFDRVEEKRDAMQSLLLPPPAQQALAKAALTYRFGEDHQPVTESQILSPRRWQDESNDLWTTYQRIQENLIKGGLSGRNAKGGRSHTRAVRGIDGDVKLNRALWVMAEALLTQLQ	h	4.67
MINDIKWVQAQRKATDWRQAVEIATRPLVAYGAAQPCYVNGIIENTLNWGPYYLIAPGIALPHARPEQGANYNQVSITTLRTPVAFGNEECDPVWLLLCVSATDANAHILTIQRISQFIDSPQRLTAVGNASTDDALFALVSG	h	4.66
MANPTVIKLQDGNVMPQLGLGVWQASNEEVITAIQKALEVGYRSIDTAAAYKNEEGVGKALKNASVNREELFITTKLWNDDHKRPREALLDSLKKLQLDYIDLYLMHWPVPAIDHYVEAWKGMIELQKEGLIKSIGVCNFQIHHLQRLIDETGVTPVINQIELHPLMQQRQLHAWNATHKIQTESWSPLAQGGKGVFDQKVIRDLADKYGKTPAQIVIRWHLDSGLVVIPKSVTPSRIAENFDVWDFRLDKDELGEIAKLDQGKRLGPDPDQFGG	h	4.8

* * *

Assay: total protein half-life in vivo (active degradation + dilution); higher = more stable protein
Details: wild type E. coli NCM3722; growth: C-lim chemostat; doubling time 6 h
total protein half-life in vivo: recorded values
quantity.name: total protein half-life in vivo (h)

macromolecule.sequence	quantity.name	assay.result
MATTHLDVCAVVPAAGFGRRMQTECPKQYLSIGNQTILEHSVHALLAHPRVKRVVIAISPGDSRFAQLPLANHPQITVVDGGDERADSVLAGLKAAGDAQWVLVHDAARPCLHQDDLARLLALSETSRTGGILAAPVRDTMKRAEPGKNAIAHTVDRNGLWHALTPQFFPRELLHDCLTRALNEGATITDEASALEYCGFHPQLVEGRADNIKVTRPEDLALAEFYLTRTIHQENT	total protein half-life in vivo	6.7
MSHLAELVASAKAAISQASDVAALDNVRVEYLGKKGHLTLQMTTLRELPPEERPAAGAVINEAKEQVQQALNARKAELESAALNARLAAETIDVSLPGRRIENGGLHPVTRTIDRIESFFGELGFTVATGPEIEDDYHNFDALNIPGHHPARADHDTFWFDTTRLLRTQTSGVQIRTMKAQQPPIRIIAPGRVYRNDYDQTHTPMFHQMEGLIVDTNISFTNLKGTLHDFLRNFFEEDLQIRFRPSYFPFTEPSAEVDVMGKNGKWLEVLGCGMVHPNVLRNVGIDPEVYSGFAFGMGMERLTMLRYGVTDLRSFFENDLRFLKQFK	total protein half-life in vivo	6.19
